test: chemical genetic growth profiling, strain panel (AID 1159580);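 also: tested at 20 µM; growth read once vehicle control cultures reached saturation at 30 °C; 1 = growth at the plate median or of vehicle wells; lower values mean less growth of the strain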; conditions: S. cerevisiae deletion strains, growth OD, locus YJL187C, strain SWE1 (second series), stronger effect = lower value
The whole screen tested about 5,500 compounds, of which about 2,000 (36%) were called active. Another 18% or so got no clear call; they are omitted. The list shows a part of the results.
parameter: normalized growth

Would you please look over these solved cases?
1) CC(C)=CCCC(C)[C@@H]1CC[C@]2(C)C3=C(CC[C@@]12C)C1(C)CC[C@H](O)C(C)(C)C1CC3 (stereo not given in full)	0.995 (inactive)
2) CCN1CCN(C(=O)NC(C(=O)N[C@@H]2C(=O)N3[C@@H]2SC(C)(C)[C@@H]3C(=O)O)c2ccccc2)C(=O)C1=O (stereo not given in full)	1.03 (inactive)
3) CC(C)=CCCC(C)C1CC[C@@]2(C)C3=C(CC[C@]12C)C1(C)CC[C@H](O)C(C)(C)C1CC3 (stereo not given in full)	0.959 (inactive)
4) CC(C)CC1NC(=O)CNC1=O (stereo not given)	0.969 (inactive)

Fill in: normalized growth of NC1=NCCN1CC(=O)O is ___ 0.964 (inactive)
